All figures here come from paper PMC7819943.

Recorded binding signal for the following sequences
biological target: OsWRKY34 (Oryza sativa, UniProt Q0JBA9 1-250); test: protein-binding microarray (RPBM); PBS, 2% BSA, 51.3 ng/ul salmon testes DNA, 50 uM zinc acetate, 200 nM TF, 25 C, 1 h; high values mean tight binding; conditions: protein: recombinant; tags: N-terminal polyhistidine and DsRed monomer fusion (pET32a); label: CyDye5-dUTP incorporated in the synthesized complementary strand; 3' TTTTT single-stranded linker to array surface; dsDNA, one strand shown
Sequence (Q0JBA9 entry or part of it): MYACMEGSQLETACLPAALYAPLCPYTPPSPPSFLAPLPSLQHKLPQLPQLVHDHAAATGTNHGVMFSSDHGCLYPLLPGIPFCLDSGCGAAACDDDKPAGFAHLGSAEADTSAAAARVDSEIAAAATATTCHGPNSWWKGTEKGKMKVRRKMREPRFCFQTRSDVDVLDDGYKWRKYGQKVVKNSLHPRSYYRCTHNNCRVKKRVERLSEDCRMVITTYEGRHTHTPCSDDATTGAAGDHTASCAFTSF
In all, about 68,000 sequences were measured (“fluorescence intensity (a.u.)”: median about 9,100, highest 2% from about 16,000 on). The sample as a whole holds a higher share of the highest values than the screen did.

INSERT INTO results (seq_text, target_or_system, recorded_measurement) VALUES
  ('CTTGGACCCACTTAATATGTTATATGGCTATTTCTAGTCACGGAGTCACCTAGTGCAG', 'OsWRKY34 (Oryza sativa, UniProt Q0JBA9 1-250)', '8220 fluorescence intensity (a.u.)'),
  ('ATATACATGTGATAGCTTCGTCTCAAGATACATTGTCCTACGGAGTCACCTAGTGCAG', 'OsWRKY34 (Oryza sativa, UniProt Q0JBA9 1-250)', '9500 fluorescence intensity (a.u.)');

-- ask State binding signal (OsWRKY34 (Oryza sativa, UniProt Q0JBA9 1-250)) of TTCTCACATGTTTGACCATTCGTCTTATTAAAAATTTTATCGGAGTCACCTAGTGCAG .
-- reply 11100 fluorescence intensity (a.u.)

---

target: OsWRKY34 (Oryza sativa, UniProt Q0JBA9 1-250); assay: protein-binding microarray (RPBM); PBS, 2% BSA, 51.3 ng/ul salmon testes DNA, 50 uM zinc acetate, 200 nM TF, 25 C, 1 h; high values mean tight binding; settings: protein: recombinant; tags: N-terminal polyhistidine and DsRed monomer fusion (pET32a); label: CyDye5-dUTP incorporated in the synthesized complementary strand; 3' TTTTT single-stranded linker to array surface; dsDNA, one strand shown
The full ranking holds about 68,000 sequences; the median of “fluorescence intensity (a.u.)” is about 9,100, and the highest 2% start at about 16,000. What follows is part of a selection rich in the highest values, with near analogues and random picks from the rest.
Parameter: binding signal. Scope: all listed entries.

-- ask Give the reported value of binding signal for this record: GGGCATTGAGTGGTGGGGACGTGTGGGAGGCAGGCGGAGACGGAGTCACCTAGTGCAG
-- reply 9540 fluorescence intensity (a.u.)

---

biological target: OsWRKY34 (Oryza sativa, UniProt Q0JBA9 1-250); assay: protein-binding microarray (RPBM); PBS, 2% BSA, 51.3 ng/ul salmon testes DNA, 50 uM zinc acetate, 200 nM TF, 25 C, 1 h; high values mean tight binding; details: protein: recombinant; tags: N-terminal polyhistidine and DsRed monomer fusion (pET32a); label: CyDye5-dUTP incorporated in the synthesized complementary strand; 3' TTTTT single-stranded linker to array surface; dsDNA, one strand shown
In all, about 68,000 sequences were measured (“fluorescence intensity (a.u.)”: median about 9,100, highest 2% from about 16,000 on). The sample holds the highest values, similar sequences and a random draw of the others, so the mix is not that of the screen.
binding signal values by entry

Use the examples below as a reference point.
INSERT INTO results (seq_text, target_or_system, recorded_measurement) VALUES
  ('ATCGTCCTCTGCACCTGCACACATCATCACTGGGACAACCCGGAGTCACCTAGTGCAG', 'OsWRKY34 (Oryza sativa, UniProt Q0JBA9 1-250)', '8140 fluorescence intensity (a.u.)'),
  ('ATCATTTAATTCCTGCGTTTTTCCTGCGATTCAATCAAACCGGAGTCACCTAGTGCAG', 'OsWRKY34 (Oryza sativa, UniProt Q0JBA9 1-250)', '11300 fluorescence intensity (a.u.)');

Now examine the next entry.
-- ask Read the entry TTTGCAACATTTGATTACTCGTCTTATTTAATTTTTTTTTCGGAGTCACCTAGTGCAG and write its reported binding signal.
-- reply 8230 fluorescence intensity (a.u.)
